system: Dihydrofolate reductase (Rattus norvegicus)
Sequence (Q920D2 whole entry): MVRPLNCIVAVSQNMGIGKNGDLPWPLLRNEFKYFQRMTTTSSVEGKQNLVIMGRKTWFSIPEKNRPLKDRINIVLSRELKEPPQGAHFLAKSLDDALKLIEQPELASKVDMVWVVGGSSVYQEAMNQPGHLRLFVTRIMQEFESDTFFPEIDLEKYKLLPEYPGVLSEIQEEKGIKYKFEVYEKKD
Please respond with reported IC50 for every item in the list.
Remember to put the unit after the number in your answer.

The reported IC50 value, Dihydrofolate reductase (Rattus norvegicus), for Cc1cc(N(C)C)nc2c(C)cc(Cc3cnc(N)nc3N)cc12 reads 280 µM

Fill in: Dihydrofolate reductase (Rattus norvegicus) IC50 for COc1cc(Cc2cnc(N)nc2N)cc2c(N(C)C)cc(C)nc12 = 70 µM

Record Cc1cc(N2CCOCC2)nc2c(C)cc(Cc3cnc(N)nc3N)cc12 / Dihydrofolate reductase (Rattus norvegicus), IC50 recorded as 410 µM

Lab entry: Dihydrofolate reductase (Rattus norvegicus) assay, compound COc1cc(C)nc2c(OC)cc(Cc3cnc(N)nc3N)cc12 , IC50 = 49 µM

// IC50 (Dihydrofolate reductase (Rattus norvegicus)) for Cc1cc(N2CCOCC2)nc2cc(Cc3cnc(N)nc3N)ccc12 = 16 µM

Field IC50 (Dihydrofolate reductase (Rattus norvegicus)), entry COc1cc(C)c2ccc(Cc3cnc(N)nc3N)cc2n1 : 4.5 µM

For the compound COc1cc(C)c2cc(Cc3cnc(N)nc3N)cc(C)c2n1 , the measured IC50 on Dihydrofolate reductase (Rattus norvegicus) was 62 µM
